Reported Purity % is given for each of the following molecules.
test: Crystal form stability study (influencing factor experiments); assay type: physicochemical; conditions: Initial, 0 days
Please respond with the number in % and leave the unit unwritten.

Query :: I am curious: what Purity % value has been reported for CCc1c(F)ccc2cc(O)cc(-c3nc4c5c(nc(OC[C@@]67CCCN6C[C@H](F)C7)nc5c3F)N3C[C@H]5CC[C@H](N5)[C@H]3CO4)c12 [Crystal form K] ?
Result :: 99.8

Query :: Next entry: CCc1c(F)ccc2cc(O)cc(-c3nc4c5c(nc(OC[C@@]67CCCN6C[C@H](F)C7)nc5c3F)N3C[C@H]5CC[C@H](N5)[C@H]3CO4)c12 [Crystal form J]
Result :: 99.6

Query :: Request: CCc1c(F)ccc2cc(O)cc(-c3nc4c5c(nc(OC[C@@]67CCCN6C[C@H](F)C7)nc5c3F)N3C[C@H]5CC[C@H](N5)[C@H]3CO4)c12 [Crystal form I]
Result :: 99.6

Others:
Query :: Endpoint output: Purity % of CCc1c(F)ccc2cc(O)cc(-c3nc4c5c(nc(OC[C@@]67CCCN6C[C@H](F)C7)nc5c3F)N3C[C@H]5CC[C@H](N5)[C@H]3CO4)c12 [Crystal form A] . Value?
Result :: 99.3

Query :: Cool, now CCc1c(F)ccc2cc(O)cc(-c3nc4c5c(nc(OC[C@@]67CCCN6C[C@H](F)C7)nc5c3F)N3C[C@H]5CC[C@H](N5)[C@H]3CO4)c12 [Crystal form B]
Result :: 99.4

Query :: Also check CCc1c(F)ccc2cc(O)cc(-c3nc4c5c(nc(OC[C@@]67CCCN6C[C@H](F)C7)nc5c3F)N3C[C@H]5CC[C@H](N5)[C@H]3CO4)c12 [Crystal form C]
Result :: 99.7

====

Experiment: Crystal form stability study (influencing factor experiments)
Format: physicochemical
Conditions: 40° C., 30 days, open container
Experimental: Samples of the crystal forms A, B, C, I, J, and K of the compound represented by formula (I) were taken, spread in open containers, and left to stand under conditions of light exposure (4500 Lux), high temperatures (40° C. and 60° C.), and high humidities (RH 75% and RH 92.5%) for 30 days to investigate their stability, and the results are shown in Table 16.
OUTCOME_MEASURE: Crystal form

Query :: What does the record list as Crystal form for CCc1c(F)ccc2cc(O)cc(-c3nc4c5c(nc(OC[C@@]67CCCN6C[C@H](F)C7)nc5c3F)N3C[C@H]5CC[C@H](N5)[C@H]3CO4)c12 [Crystal form K] ?
Result :: Did not change

Query :: For CCc1c(F)ccc2cc(O)cc(-c3nc4c5c(nc(OC[C@@]67CCCN6C[C@H](F)C7)nc5c3F)N3C[C@H]5CC[C@H](N5)[C@H]3CO4)c12 [Crystal form I] then?
Result :: Did not change

Query :: // repeat for CCc1c(F)ccc2cc(O)cc(-c3nc4c5c(nc(OC[C@@]67CCCN6C[C@H](F)C7)nc5c3F)N3C[C@H]5CC[C@H](N5)[C@H]3CO4)c12 [Crystal form B] and report
Result :: Did not change

====

test: Crystal form stability study (influencing factor experiments); type: physicochemical; details: 60° C., 10 days, open container
OUTCOME_MEASURE: Purity % (%)
// return numeric value only (unit: %, not printed)

Query :: May I ask what Purity % has been recorded for CCc1c(F)ccc2cc(O)cc(-c3nc4c5c(nc(OC[C@@]67CCCN6C[C@H](F)C7)nc5c3F)N3C[C@H]5CC[C@H](N5)[C@H]3CO4)c12 [Crystal form B] ?
Result :: 99.2

Query :: Also CCc1c(F)ccc2cc(O)cc(-c3nc4c5c(nc(OC[C@@]67CCCN6C[C@H](F)C7)nc5c3F)N3C[C@H]5CC[C@H](N5)[C@H]3CO4)c12 [Crystal form A] , if possible.
Result :: 99.0

Query :: Entry CCc1c(F)ccc2cc(O)cc(-c3nc4c5c(nc(OC[C@@]67CCCN6C[C@H](F)C7)nc5c3F)N3C[C@H]5CC[C@H](N5)[C@H]3CO4)c12 [Crystal form K] please
Result :: 98.5

Query :: Consider next the compound CCc1c(F)ccc2cc(O)cc(-c3nc4c5c(nc(OC[C@@]67CCCN6C[C@H](F)C7)nc5c3F)N3C[C@H]5CC[C@H](N5)[C@H]3CO4)c12 [Crystal form J] in the same way.
Result :: 98.5

Query :: For CCc1c(F)ccc2cc(O)cc(-c3nc4c5c(nc(OC[C@@]67CCCN6C[C@H](F)C7)nc5c3F)N3C[C@H]5CC[C@H](N5)[C@H]3CO4)c12 [Crystal form C] then?
Result :: 99.0

For the next question, use this compound.
Query :: Suppose we examine the compound CCc1c(F)ccc2cc(O)cc(-c3nc4c5c(nc(OC[C@@]67CCCN6C[C@H](F)C7)nc5c3F)N3C[C@H]5CC[C@H](N5)[C@H]3CO4)c12 [Crystal form I] ; what Purity % value has been reported?
Result :: 99.4
